These data points were gathered from patent US20030220243A1.

SYSTEM: GLP-1 receptor
EXPERIMENTAL PROTOCOL: cell-based or functional assay
Ends that are not written are not given here.
ENDPOINT LABEL: GLP-1 Receptor Activation

HVEGTFTSDVSSYLEGQAAKEFIAWLVKGGP-NH2 [Val^8-Gly^36-Pro^37-GLP-1(7-37)NH2]; 0.53 relative to GLP-1(7-37)OH
HVEGTFTSDVSSYLEGKAAKEFIAWLVKGRG [Val^8-Lys^23-GLP-1(7-37)OH]; 0.18 relative to GLP-1(7-37)OH
HVEGTFTSDVSSYLEGQAAKEFIDWLVKGRG [Val^8-Asp^30-GLP-1(7-37)OH]; 0.15 relative to GLP-1(7-37)OH
HVEGTFTSDVSSYLEGQHAKEFIAWLVKGRG [Val^8-His^24-GLP-1(7-37)OH]; 0.007 relative to GLP-1(7-37)OH
HVEGTFTSDVSSYLEGQAAKEFIAWLVKHRG [Val^8-His^35-GLP-1(7-37)OH]; 0.41 relative to GLP-1(7-37)OH
HVEGTFTSDVSSYLEGQAAKEFIAWLVKGEG [Val^8-Glu^36-GLP-1(7-37)OH]; 0.11 relative to GLP-1(7-37)OH
HVEGTFTSDVSSYLEGQAAKEFIAWLVKPRG [Val^8-Pro^35-GLP-1(7-37)OH]; 0.094 relative to GLP-1(7-37)OH
HVEGTFTSDVSSYLEGQAAKEFIAWLVEGRG [Val^8-Glu^34-GLP-1(7-37)OH]; 0.17 relative to GLP-1(7-37)OH

Specify measured GLP-1 Receptor Activation for HVEGTFTSDVSSYLEGQAAKEFIAWLAKGRG [Val^8-Ala^33-GLP-1(7-37)OH] .
0.1 relative to GLP-1(7-37)OH

Tell me its GLP-1 Receptor Activation given HVEGTFTSDVSSYLEGQAAKEFIEWLVKGRG [Val^8-Glu^30-GLP-1(7-37)OH] as the entry.
0.29 relative to GLP-1(7-37)OH

Return the recorded GLP-1 Receptor Activation value; entry: HGEGTFTSDVSSYLEGQAAKEFIEWLVKGRG [Gly^8-Glu^30-GLP-1(7-37)OH]
0.29 relative to GLP-1(7-37)OH

Supply GLP-1 Receptor Activation value. Item: HVEGTFTSDVSSYLEGQAAKEFIAWLVKGRH [Val^8-His^37-GLP-1(7-37)OH]
0.33 relative to GLP-1(7-37)OH

Please indicate GLP-1 Receptor Activation recorded for HVEGTFTSDVSSYLEGQAAKEFIAWLVGKRG [Val^8-Gly^34-Lys^35-GLP-1(7-37)OH]
0.34 relative to GLP-1(7-37)OH

Hello, please tell me recorded GLP-1 Receptor Activation for this one: HVEGTFTSDYSSYLEGQAAKEFIAWLVKGRG [Val^8-Tyr^16-GLP-1(7-37)OH]
1.18 relative to GLP-1(7-37)OH

Item HVEGTYTSDVSSYLEGQAAKEFIAWLVKGRG [Val^8-Tyr^12-GLP-1(7-37)OH] : provide GLP-1 Receptor Activation
0.81 relative to GLP-1(7-37)OH

Please supply the value of reported GLP-1 Receptor Activation for the item HVEGTFTSDVSSYKEGQAAKEFIAWLVKGRG [Val^8-Lys^20-GLP-1(7-37)OH]
0.33 relative to GLP-1(7-37)OH

Tell me its GLP-1 Receptor Activation given HVEGTFTSDVSSYLEEKAAKEFIAWLVKGRG [Val^8-Glu^22-Lys^23-GLP-1(7-37)OH] as the entry.
1.43 relative to GLP-1(7-37)OH

Answer with the recorded GLP-1 Receptor Activation of HAEGTFTSDVSSYLEQQAAKEFIAWLVKGRG [Gln^22-GLP-1(7-37)OH] only.
0.42 relative to GLP-1(7-37)OH

// Input: HVEGTFTSDVSSYLEGQAAKEFIHWLVKGRG [Val^8-His^30-GLP-1(7-37)OH] . Output its GLP-1 Receptor Activation only.
0.19 relative to GLP-1(7-37)OH

Output GLP-1 Receptor Activation of HVEGTFTSDVSSYLEEQAAKEFIAWLVKGR-NH2 [Val^8-Glu^22-GLP-1(7-36)NH2]
1 relative to GLP-1(7-37)OH

Name the recorded GLP-1 Receptor Activation of the item HVEGTFTSDVSSYLEGEAAKEFIAWLVKGR [Val^8-Glu^23-GLP-1(7-36)OH] in your answer.
0.28 relative to GLP-1(7-37)OH

Read the entry HVEGTFTSDVSSYLEKEAAKEFIAWLVKGRH [Val^8-Lys^22-Glu^23-GLP-1(7-37)OH] and write its reported GLP-1 Receptor Activation.
0.35 relative to GLP-1(7-37)OH

Indicate its recorded GLP-1 Receptor Activation; the binder in question is HVEGTFTSDVSSYLEGQAAKEFIAWLKNGRG [Val^8-Lys^33-Asn^34-GLP-1(7-37)OH]
0.09 relative to GLP-1(7-37)OH

Quickly give me recorded GLP-1 Receptor Activation for HAEGTFTSDVSSYLEGQAAEEFIAWLVKGRG [Ala^8-Glu^26-GLP-1(7-37)OH]
0.7 relative to GLP-1(7-37)OH

Given HVEGTFTSDVSSYLEGQAAKHFIAWLVKGRG [Val^8-His^27-GLP-1(7-37)OH] , respond with its GLP-1 Receptor Activation.
0.37 relative to GLP-1(7-37)OH

Give the measured GLP-1 Receptor Activation for HVEGTFTSDVSSYLEAQAAKEFIAWLVKGRG [Val^8-Ala^22-GLP-1(7-37)OH]
0.56 relative to GLP-1(7-37)OH
